Origin of measurements: PubChem BioAssay

For each entry below, report its z-score value.
Assay: modulators of HCV replicon luciferase signal, primary screen, HCV replication inhibitor project, Huh7 cells, luciferase reporter (AID 1109);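 also: huh7 hepatoma cells harbouring a luciferase neomycin HCV replicon reporter; luciferase luminescence as measure of HCV replicon replication; test concentration not given here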
Settings: 48 h, higher = more signal
Just the number.

Return reported z-score; argument: CC(C)=NO[C@@H](C)c1cc(-c2c(C)cc(C)cc2C)no1
-0.527

What about this molecule? COC(=O)[C@H](C)NC(=O)CCC1CC(OC(=O)NCCc2ccc(F)cc2)CC2(CCCC(COC(=O)NCCCN3CCCC3=O)O2)O1 (some centres undefined)
-2.21

What about this molecule? CCOC(=O)NN=C1C[C@@H](O)[C@@H](O)[C@@H]2[C@@H]3C(=O)N(Cc4ccc5c(c4)OCO5)C(=O)[C@@H]3CC[C@@H]12
-0.398

What about this molecule? CCOC(=O)[C@H](CC(C)C)NC(=O)CCC1CC(OC(=O)NCc2cccc3ccccc23)CC2(CCCC(COC(=O)NCc3ccccc3)O2)O1 (some centres undefined)
-0.132

---

Experiment: small-molecule binders of probe aNOTCH2, primary screen, biochemical, small-molecule microarray, 635/667 nm fluorescence (AID 1121);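 also: score merges feature fluorescence read at 667 nm with its signal to noise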
Conditions: higher = more signal
Reported metric: composite z-score
Just the number.

Return reported composite z-score; argument: CO[C@H]1COC(=O)[C@H](C)NC(=O)CC=C[C@@H](C)[C@H](OC)COC(=O)CC=C[C@@H]1C
-0.161

What about this compound? C[C@@H]1CC[C@@H](C(=O)O)N[C@H]1c1ccc(-c2ccco2)cc1
-0.16

What about this compound? CC(=O)OC[C@H]1O[C@H](C#CC(C)(C)C)C=C[C@@H]1OC(C)=O
-0.0649

What about this compound? C[C@@H](c1ccccc1)N1C(=O)[C@H]2[C@H]3[C@H](O)[C@H](O)CC(=O)[C@@H]3CC[C@H]2C1=O
-0.0843

What about this compound? CC(C)CCN1CCc2nc(-c3ccccc3)c3c(c2C1)CO[C@@H](C)C3
-0.16

What about this compound? O=C(NN=C1C[C@@H](O)[C@@H](O)[C@@H]2[C@@H]3C(=O)N(Cc4ccc5c(c4)OCO5)C(=O)[C@@H]3CC[C@H]12)OCc1ccccc1
-0.11

What about this compound? Cc1ccc(S(=O)(=O)N[C@H]2COC(=O)[C@@H](C)COC(=O)[C@H](C)NC(=O)CC=C[C@H]2C)cc1
-0.14

What about this compound? C=C(C)C(=O)OC[C@@H]1CN2[C@@H](CC[C@@H](C)[C@@H]2c2ccc(Br)cc2)C(=O)O1
-0.153

---

Target: Neurogenic locus notch homolog protein 2 (Homo sapiens) (UniProt Q04721)
Sequence (Q04721 whole entry, looked up): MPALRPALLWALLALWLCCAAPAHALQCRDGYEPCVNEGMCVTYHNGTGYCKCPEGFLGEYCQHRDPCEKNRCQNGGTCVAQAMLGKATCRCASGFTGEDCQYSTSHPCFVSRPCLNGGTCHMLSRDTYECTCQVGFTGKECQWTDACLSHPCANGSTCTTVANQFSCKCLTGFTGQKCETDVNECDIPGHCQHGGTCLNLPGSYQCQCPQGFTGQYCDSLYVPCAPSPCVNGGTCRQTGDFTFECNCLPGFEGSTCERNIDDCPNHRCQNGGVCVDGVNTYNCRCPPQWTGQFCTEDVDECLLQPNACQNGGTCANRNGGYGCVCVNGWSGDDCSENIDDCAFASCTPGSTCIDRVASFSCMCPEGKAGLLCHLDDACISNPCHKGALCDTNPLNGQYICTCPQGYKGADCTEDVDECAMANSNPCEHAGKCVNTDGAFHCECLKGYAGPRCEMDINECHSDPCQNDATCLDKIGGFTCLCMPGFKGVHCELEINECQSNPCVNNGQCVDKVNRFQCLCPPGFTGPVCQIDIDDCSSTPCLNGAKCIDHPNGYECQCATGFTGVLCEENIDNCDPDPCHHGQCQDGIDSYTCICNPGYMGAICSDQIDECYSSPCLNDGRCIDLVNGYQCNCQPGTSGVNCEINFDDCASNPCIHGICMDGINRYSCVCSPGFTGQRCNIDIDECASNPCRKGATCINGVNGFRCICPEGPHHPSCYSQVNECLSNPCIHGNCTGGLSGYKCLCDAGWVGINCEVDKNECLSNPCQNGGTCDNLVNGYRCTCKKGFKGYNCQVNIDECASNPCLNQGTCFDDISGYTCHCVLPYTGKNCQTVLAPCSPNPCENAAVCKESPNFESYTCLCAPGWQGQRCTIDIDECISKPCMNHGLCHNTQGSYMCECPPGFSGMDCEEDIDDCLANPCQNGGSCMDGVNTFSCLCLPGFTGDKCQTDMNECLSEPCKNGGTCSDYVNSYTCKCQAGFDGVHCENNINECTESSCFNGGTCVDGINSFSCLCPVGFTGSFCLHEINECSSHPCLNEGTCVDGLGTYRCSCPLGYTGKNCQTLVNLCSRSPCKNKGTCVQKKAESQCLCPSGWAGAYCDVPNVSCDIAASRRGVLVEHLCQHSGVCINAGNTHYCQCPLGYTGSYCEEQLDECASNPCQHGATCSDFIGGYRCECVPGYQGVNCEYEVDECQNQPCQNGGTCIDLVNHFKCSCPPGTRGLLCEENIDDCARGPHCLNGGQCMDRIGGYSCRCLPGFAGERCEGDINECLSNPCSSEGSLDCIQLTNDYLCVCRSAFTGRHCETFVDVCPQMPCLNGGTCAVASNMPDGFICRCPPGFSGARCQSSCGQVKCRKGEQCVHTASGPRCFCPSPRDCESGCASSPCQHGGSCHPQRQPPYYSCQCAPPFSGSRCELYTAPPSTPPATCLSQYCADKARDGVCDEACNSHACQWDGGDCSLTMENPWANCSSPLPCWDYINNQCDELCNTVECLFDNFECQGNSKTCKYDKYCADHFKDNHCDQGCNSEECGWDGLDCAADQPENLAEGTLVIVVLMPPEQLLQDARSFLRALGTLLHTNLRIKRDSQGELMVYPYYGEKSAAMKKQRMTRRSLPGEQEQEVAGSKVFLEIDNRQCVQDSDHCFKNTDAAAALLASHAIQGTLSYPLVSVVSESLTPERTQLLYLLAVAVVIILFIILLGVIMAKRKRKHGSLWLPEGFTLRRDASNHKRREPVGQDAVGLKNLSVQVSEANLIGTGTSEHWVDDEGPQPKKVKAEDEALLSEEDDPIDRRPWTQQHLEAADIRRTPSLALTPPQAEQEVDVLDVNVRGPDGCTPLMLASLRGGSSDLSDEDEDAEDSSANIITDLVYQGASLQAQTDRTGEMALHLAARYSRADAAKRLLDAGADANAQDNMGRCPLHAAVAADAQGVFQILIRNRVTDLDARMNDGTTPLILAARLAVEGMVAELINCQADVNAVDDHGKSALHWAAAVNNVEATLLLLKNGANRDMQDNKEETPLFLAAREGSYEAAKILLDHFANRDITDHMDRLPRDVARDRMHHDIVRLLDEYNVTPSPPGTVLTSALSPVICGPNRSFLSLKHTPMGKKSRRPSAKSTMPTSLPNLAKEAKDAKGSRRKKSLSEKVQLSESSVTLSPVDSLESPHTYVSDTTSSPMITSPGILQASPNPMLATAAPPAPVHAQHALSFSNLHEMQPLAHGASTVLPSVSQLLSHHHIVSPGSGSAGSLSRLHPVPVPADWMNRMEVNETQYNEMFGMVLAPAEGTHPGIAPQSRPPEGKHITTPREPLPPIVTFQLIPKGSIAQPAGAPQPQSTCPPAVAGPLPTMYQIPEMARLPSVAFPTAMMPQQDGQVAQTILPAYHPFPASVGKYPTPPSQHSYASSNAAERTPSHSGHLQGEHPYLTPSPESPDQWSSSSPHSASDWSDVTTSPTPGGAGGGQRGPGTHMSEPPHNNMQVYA
Assay: Notch2 binders on small-molecule microarrays, primary screen, biochemical, small-molecule microarray, 635 nm fluorescence, stem cell growth factors (AID 1073)
Details: Notch2 binding, higher = more signal
Threshold rule: composite z-score greater than or equal to -0.4 is t; below that, f.

For this compound, is measured composite z-score -0.4 or higher? CO[C@@H]1C=CCC(=O)N2CCC[C@H]2C(=O)OC[C@H](C)C(=O)OC[C@H]1C
t

What about this compound? CCOC(=O)[C@H](CC(C)C)NC(=O)CCC1CC(OC(=O)NCc2cccc3ccccc23)CC2(CCCC(COC(=O)NCc3ccccc3)O2)O1 (stereo partly drawn)
t

What about this compound? CC(C)C(=O)N[C@@H]1CCCN1C(=O)C=Cc1ccccc1
t

What about this compound? CC(C)=NOC[C@@H](O)COCc1ccco1
f

What about this compound? CCN1C(=O)[C@H]2[C@H]3[C@H](O)[C@H](O)CC(=NOC)[C@@H]3CC[C@H]2C1=O
f

What about this compound? Cc1cc2c(nc1C)CCCN2CC(C)ON=C[C@@H](C)[C@H](OCc1ccccc1)C(C)C (stereo partly drawn)
f

What about this compound? CCOC(=O)NN=C1C[C@@H](O)[C@@H](O)[C@@H]2[C@@H]3C(=O)N(Cc4ccc5c(c4)OCO5)C(=O)[C@@H]3CC[C@@H]12
t

What about this compound? C[C@@H](ON=C1[C@H]2CCn3c(=O)n(-c4ccccc4)c(=O)n3[C@H]2[C@H](O)[C@@H]2O[C@H]12)c1cn([C@H](CO)Cc2ccccc2)nn1
t
